Source listed as paper PMC9030223.

- target_of_assay: MEK5 (Homo sapiens, UniProt Q13163)
- Sequence (Q13163 whole entry): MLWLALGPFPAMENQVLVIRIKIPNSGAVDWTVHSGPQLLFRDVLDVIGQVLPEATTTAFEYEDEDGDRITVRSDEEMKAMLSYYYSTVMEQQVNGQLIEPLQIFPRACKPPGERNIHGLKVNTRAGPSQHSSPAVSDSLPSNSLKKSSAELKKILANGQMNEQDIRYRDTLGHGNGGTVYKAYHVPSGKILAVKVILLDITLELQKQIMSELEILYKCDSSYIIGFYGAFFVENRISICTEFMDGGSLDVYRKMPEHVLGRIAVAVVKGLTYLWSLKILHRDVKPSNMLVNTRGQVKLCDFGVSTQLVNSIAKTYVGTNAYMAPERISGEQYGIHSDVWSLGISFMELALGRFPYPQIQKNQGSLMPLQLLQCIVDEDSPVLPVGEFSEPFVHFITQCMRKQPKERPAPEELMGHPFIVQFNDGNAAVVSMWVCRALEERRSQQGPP
measurement_type: Kd

Please report the recorded Kd for NCC(N)C(=O)Nc1ccc(-c2nc3ccccc3s2)cc1 (stereo not shown) .
> 30 µM

====

- target_of_assay: MAP4K2 (Homo sapiens, UniProt Q12851)
- Construct: purchased Eurofins DiscoverX Corporation
- Sequence (Q12851 1-820): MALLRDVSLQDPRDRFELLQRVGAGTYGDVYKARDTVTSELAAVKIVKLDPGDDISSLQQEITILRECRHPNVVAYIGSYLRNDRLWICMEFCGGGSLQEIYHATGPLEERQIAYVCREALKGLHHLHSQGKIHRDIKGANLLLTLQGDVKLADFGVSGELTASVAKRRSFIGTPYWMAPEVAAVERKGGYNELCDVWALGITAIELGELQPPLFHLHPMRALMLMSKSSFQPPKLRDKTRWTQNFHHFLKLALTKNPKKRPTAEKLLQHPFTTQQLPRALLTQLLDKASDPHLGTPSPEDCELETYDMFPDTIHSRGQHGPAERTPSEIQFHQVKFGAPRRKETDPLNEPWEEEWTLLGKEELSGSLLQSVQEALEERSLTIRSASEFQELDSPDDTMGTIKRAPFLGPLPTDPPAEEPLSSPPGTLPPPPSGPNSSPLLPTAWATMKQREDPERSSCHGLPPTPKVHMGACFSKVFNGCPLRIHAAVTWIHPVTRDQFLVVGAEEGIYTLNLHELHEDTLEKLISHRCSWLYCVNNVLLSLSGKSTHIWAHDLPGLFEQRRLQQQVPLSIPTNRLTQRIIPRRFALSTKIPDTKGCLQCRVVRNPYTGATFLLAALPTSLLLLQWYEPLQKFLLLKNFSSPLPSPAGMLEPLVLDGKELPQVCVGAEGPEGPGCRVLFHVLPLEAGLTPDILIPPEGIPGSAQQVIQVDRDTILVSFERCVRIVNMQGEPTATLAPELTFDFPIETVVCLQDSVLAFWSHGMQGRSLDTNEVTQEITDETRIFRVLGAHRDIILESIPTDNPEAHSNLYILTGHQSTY
- assay_remarks: KINOMEscan competition binding / KdELECT
- particulars: MAP4K2, mean ± S.D. (n = 2)
measurement_type: Kd (nM)
Report the figure in nM without appending any unit label.

I'd like to know its Kd. The compound in question is NCC(N)C(=O)Nc1ccc(-c2nc3ccccc3s2)cc1 (stereo not shown) [MBP-11901]
1100
